- TARGET_OR_TEST_SYSTEM: HDAC-1 (Homo sapiens (Human))
- EXPERIMENT_DESCRIPTION: HDAC-1 fluorogenic deacetylase assay (Ac-peptide-AMC)
- MEASUREMENT_CONTEXT: recombinant, full-length protein, Ac-peptide-AMC substrate; read-out: HDAC1 (IC50)
Measured IC50 by item

>  <MOLECULAR_STRING>
Cc1nc2c(F)cc(-c3nc(Nc4ccc(N(C)Cc5ccc(/C=C/C(=O)NO)cc5)cn4)ncc3F)cc2n1C(C)C

>  <IC50>
100 to 500 nM

$$$$

Prompt: Please look up its IC50: Cc1nc2c(F)cc(-c3nc(Nc4ccc(/C=C/C(=O)NO)cn4)ncc3F)cc2n1C(C)C
Completion: ≥ 1000 nM

Prompt: Please look up its IC50: Cc1nc2c(F)cc(-c3nc(Nc4ccc(N5CCN(CCCCCCC(=O)NO)CC5)cn4)ncc3F)cc2n1C(C)C
Completion: ≥ 1000 nM

Prompt: Please look up its IC50: Cc1nc2c(F)cc(-c3nc(Nc4ccc(CN5CCN(CCCCCCC(=O)NO)CC5)cn4)ncc3F)cc2n1C(C)C
Completion: 100 to 500 nM

Prompt: Please look up its IC50: Cc1nc2c(F)cc(-c3nc(Nc4ccc(N(C)CCCCCCC(=O)NO)cn4)ncc3F)cc2n1C(C)C
Completion: 10 to 100 nM

Prompt: Please look up its IC50: Cc1nc2c(F)cc(-c3nc(Nc4ccc(N5CCN(C(=O)CCCCCCC(=O)NO)CC5)cn4)ncc3F)cc2n1C(C)C
Completion: 100 to 500 nM

----------
Measured pIC50 by item
- TARGET_OR_TEST_SYSTEM: HDAC-1 (Homo sapiens (Human), UniProt Q13547)
- Sequence (Q13547 whole entry): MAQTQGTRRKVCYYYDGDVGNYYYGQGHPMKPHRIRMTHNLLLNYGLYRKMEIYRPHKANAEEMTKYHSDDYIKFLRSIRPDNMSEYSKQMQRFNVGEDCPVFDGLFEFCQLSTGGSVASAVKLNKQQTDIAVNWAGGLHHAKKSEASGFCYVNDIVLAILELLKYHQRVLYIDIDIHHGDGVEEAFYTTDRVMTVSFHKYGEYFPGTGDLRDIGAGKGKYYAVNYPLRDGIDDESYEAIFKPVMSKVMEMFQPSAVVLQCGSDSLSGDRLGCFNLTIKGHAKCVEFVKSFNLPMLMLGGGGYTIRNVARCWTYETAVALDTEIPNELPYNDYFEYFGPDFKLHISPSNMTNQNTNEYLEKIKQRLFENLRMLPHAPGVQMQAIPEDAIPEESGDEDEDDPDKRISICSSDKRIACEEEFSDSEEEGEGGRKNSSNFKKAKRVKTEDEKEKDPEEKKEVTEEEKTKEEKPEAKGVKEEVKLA
- EXPERIMENT_DESCRIPTION: HDAC-1 fluorogenic deacetylase assay (Ac-peptide-AMC)
- MEASUREMENT_CONTEXT: recombinant, full-length protein, Ac-peptide-AMC substrate; read-out: HDAC1 (IC50)
pIC50: −log10 of the molar value.

Look over these answered cases.
>  <COMPOUND>
Cc1nc2c(F)cc(-c3nc(Nc4ccc(N5CCN(Cc6ccc(C(=O)NO)cc6)CC5)cn4)ncc3F)cc2n1C(C)C [Compound 8]

>  <pIC50>
7.00 to 8.00

$$$$
>  <COMPOUND>
Cc1nc2c(F)cc(-c3nc(Nc4ccc(N5CCC(C(=O)NO)CC5)cn4)ncc3F)cc2n1C(C)C [Compound 15]

>  <pIC50>
≤ 6.00

$$$$
>  <COMPOUND>
Cc1nc2c(F)cc(-c3nc(Nc4ccc(N(C)Cc5ccc(C(=O)NO)cc5)cn4)ncc3F)cc2n1C(C)C [Compound 6]

>  <pIC50>
6.30 to 7.00

$$$$
>  <COMPOUND>
Cc1nc2c(F)cc(-c3nc(Nc4ccc(C(=O)NO)cn4)ncc3F)cc2n1C(C)C [Compound 4]

>  <pIC50>
6.30 to 7.00

$$$$
>  <COMPOUND>
Cc1nc2c(F)cc(-c3nc(Nc4ccc(-c5ccc(C(=O)NO)cn5)cn4)ncc3F)cc2n1C(C)C [Compound 16]

>  <pIC50>
≤ 6.00

$$$$
>  <COMPOUND>
Cc1nc2c(F)cc(-c3nc(Nc4cc(C(=O)NO)ccn4)ncc3F)cc2n1C(C)C [Compound 12]

>  <pIC50>
6.30 to 7.00

$$$$

Prompt: Please look up its pIC50: Cc1nc2c(F)cc(-c3nc(Nc4ccc(N5CCN(CCC(=O)NO)CC5)cn4)ncc3F)cc2n1C(C)C [Compound 14]
Completion: ≤ 6.00

----------
Measured pIC50 by item
- TARGET_OR_TEST_SYSTEM: CDK6/cycD3 (Homo sapiens (Human), UniProt Q00534)
- Sequence (Q00534 whole entry, species assumed): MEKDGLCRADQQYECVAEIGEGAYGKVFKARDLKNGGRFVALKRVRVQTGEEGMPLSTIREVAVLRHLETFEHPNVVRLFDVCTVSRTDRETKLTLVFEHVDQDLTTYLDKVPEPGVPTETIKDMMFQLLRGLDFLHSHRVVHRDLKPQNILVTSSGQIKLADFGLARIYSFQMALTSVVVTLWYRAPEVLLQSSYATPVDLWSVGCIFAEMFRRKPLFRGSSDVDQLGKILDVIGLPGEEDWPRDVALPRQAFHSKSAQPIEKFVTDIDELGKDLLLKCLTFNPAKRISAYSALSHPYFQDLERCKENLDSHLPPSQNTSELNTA
- Sequence (P30281 whole entry partner, species assumed): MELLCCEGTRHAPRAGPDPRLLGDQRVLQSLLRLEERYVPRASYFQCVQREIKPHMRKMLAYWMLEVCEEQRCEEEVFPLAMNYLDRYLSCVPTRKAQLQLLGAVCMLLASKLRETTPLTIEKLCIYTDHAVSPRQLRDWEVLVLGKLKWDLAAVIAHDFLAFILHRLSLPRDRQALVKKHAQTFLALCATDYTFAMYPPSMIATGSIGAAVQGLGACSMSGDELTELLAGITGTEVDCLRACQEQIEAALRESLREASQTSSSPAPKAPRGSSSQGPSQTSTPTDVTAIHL
- EXPERIMENT_DESCRIPTION: CDK6/cycD3 kinase Mobility Shift Assay
- MEASUREMENT_CONTEXT: CDK6/cycD3 15 nM, ATP Km 800 μM, 60 min, 28° C.
pIC50: −log10 of the molar value.

Look over these answered cases.
>  <COMPOUND>
Cc1nc2c(F)cc(-c3nc(Nc4ccc(N5CCN(CCCCC(=O)NO)CC5)cn4)ncc3F)cc2n1C(C)C [Compound 13]

>  <QUANTITY>
pIC50

>  <EXPERIMENTAL_RESULT>
> 8.00

$$$$
>  <COMPOUND>
Cc1nc2c(F)cc(-c3nc(Nc4ccc(N(C)CCN(C)c5ncc(C(=O)NO)cn5)cn4)ncc3F)cc2n1C(C)C [Compound 2]

>  <QUANTITY>
pIC50

>  <EXPERIMENTAL_RESULT>
7.00 to 8.00

$$$$
>  <COMPOUND>
Cc1nc2c(F)cc(-c3nc(Nc4cc(C(=O)NO)ccn4)ncc3F)cc2n1C(C)C [Compound 12]

>  <QUANTITY>
pIC50

>  <EXPERIMENTAL_RESULT>
≤ 6.00

$$$$
>  <COMPOUND>
Cc1nc2c(F)cc(-c3nc(Nc4ccc(N(C)Cc5ccc(C(=O)NO)cc5)cn4)ncc3F)cc2n1C(C)C [Compound 6]

>  <QUANTITY>
pIC50

>  <EXPERIMENTAL_RESULT>
7.00 to 8.00

$$$$

Prompt: Please look up its pIC50: Cc1nc2c(F)cc(-c3nc(Nc4ccc(C(=O)NO)nc4)ncc3F)cc2n1C(C)C [Compound 11]
Completion: 7.00 to 8.00

----------
- TARGET_OR_TEST_SYSTEM: CDK2/CycA2 (Homo sapiens (Human), UniProt P24941)
- EXPERIMENT_DESCRIPTION: CDK2/CycA2 kinase Mobility Shift Assay
- MEASUREMENT_CONTEXT: CDK2/CycA2 12 nM, ATP Km 39 μM, 60 min, 28° C.
pIC50: −log10 of the molar value.
Measured pIC50 by item

Look over these answered cases.
>  <MOLECULAR_STRING>
Cc1nc2c(F)cc(-c3nc(Nc4ccc(-c5ccc(C(=O)NO)cn5)cn4)ncc3F)cc2n1C(C)C

>  <pIC50>
> 8.00

$$$$
>  <MOLECULAR_STRING>
Cc1nc2c(F)cc(-c3nc(Nc4ccc(C(=O)NO)nc4)ncc3F)cc2n1C(C)C

>  <pIC50>
> 8.00

$$$$

Prompt: Please look up its pIC50: Cc1nc2c(F)cc(-c3nc(Nc4ccc(/C=C/C(=O)NO)cn4)ncc3F)cc2n1C(C)C
Completion: 7.00 to 8.00

Prompt: Please look up its pIC50: Cc1nc2c(F)cc(-c3nc(Nc4ccc(C(=O)NO)cn4)ncc3F)cc2n1C(C)C
Completion: 6.30 to 7.00

Prompt: Please look up its pIC50: Cc1nc2c(F)cc(-c3nc(Nc4ccc(N5CCN(CCC(=O)NO)CC5)cn4)ncc3F)cc2n1C(C)C
Completion: 7.00 to 8.00

----------
- TARGET_OR_TEST_SYSTEM: HDAC-1 (Homo sapiens (Human), UniProt Q13547)
- EXPERIMENT_DESCRIPTION: HDAC-1 fluorogenic deacetylase assay (Ac-peptide-AMC)
- MEASUREMENT_CONTEXT: recombinant, full-length protein, Ac-peptide-AMC substrate; read-out: HDAC1 (IC50)
Measured IC50 by item

>  <COMPOUND>
Cc1nc2c(F)cc(-c3nc(Nc4ccc(N5CCN(CCCCC(=O)NO)CC5)cn4)ncc3F)cc2n1C(C)C [Compound 13]

>  <EXPERIMENTAL_RESULT>
≥ 1 µM

$$$$

Prompt: Please look up its IC50: Cc1nc2c(F)cc(-c3nc(Nc4ccc(C(=O)NO)nc4)ncc3F)cc2n1C(C)C [Compound 11]
Completion: ≥ 1 µM

Prompt: Please look up its IC50: Cc1nc2c(F)cc(-c3nc(Nc4ccc(N(C)CCN(C)c5ncc(C(=O)NO)cn5)cn4)ncc3F)cc2n1C(C)C [Compound 2]
Completion: < 0.01 µM
